- Organism: Mus musculus
- run.description: Compound (0.10 ug/mL) was tested for their immunomodulatory activity in vitro using mixed lymphocyte reaction
- Assay type: functional
Non-standard residues stand in square brackets, D forms with d. Residues, ends and D or L forms follow the SMILES beside them. Sar = CNCC(=O)O
Each record here notes measured Stimulation index.
Returns: the value as a bare number; no unit string appended.

Examples with answers:
compound	Stimulation index
CC(C)[C@H](NC(=O)[C@@H](N)Cc1ccc(O)cc1)C(=O)N1CCC[C@H]1C(=O)NCC(=O)N[C@@H](Cc1ccccc1)C(=O)N1CCC[C@H]1C(=O)O	0.79
C[C@]12C=CC(=O)C=C1CCC1[C@@H]2[C@@H](O)C[C@@]2(C)[C@H]1CC[C@]2(O)C(=O)CO (single isomer, unassigned) [PREDNISOLONE]	0.3
CC(C)[C@H](NC(=O)[C@@H](N)Cc1ccc(O)cc1)C(=O)N1CCC[C@H]1C(=O)NCC(=O)N[C@@H](Cc1ccccc1)C(=O)N(C)CC(=O)O (H-YVPGF[Sar]-OH)	0.8

Then there is this compound:
Query: Stimulation index; subject: CC(C)[C@H](NC(=O)[C@@H](N)Cc1ccc(O)cc1)C(=O)N1CCCC1C(=O)NCC(=O)NC(Cc1ccccc1)C(=O)N1CCCC1C(=O)O (single isomer, unassigned; form 2)
0.9
